- system tested: T1, ZFP SBS#1477 (synthetic)
- T1 chain: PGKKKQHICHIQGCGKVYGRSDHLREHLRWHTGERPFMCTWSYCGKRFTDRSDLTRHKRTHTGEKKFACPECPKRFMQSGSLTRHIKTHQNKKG
- method summary: EMSA
- condition context: tags: MBP fusion
property name: Kd

Enquiry: Record request: Kd value, item GCAGCCCGG (dsDNA) DNA 1: GCAGCCCGG DNA 2: CCGGGCTGC
Return: 2.31 nM
